Where do these numbers come from? They come from ChEMBL document CHEMBL4616725.

Tested Target: UniProtKB P07948
Sequence (P07948 whole entry): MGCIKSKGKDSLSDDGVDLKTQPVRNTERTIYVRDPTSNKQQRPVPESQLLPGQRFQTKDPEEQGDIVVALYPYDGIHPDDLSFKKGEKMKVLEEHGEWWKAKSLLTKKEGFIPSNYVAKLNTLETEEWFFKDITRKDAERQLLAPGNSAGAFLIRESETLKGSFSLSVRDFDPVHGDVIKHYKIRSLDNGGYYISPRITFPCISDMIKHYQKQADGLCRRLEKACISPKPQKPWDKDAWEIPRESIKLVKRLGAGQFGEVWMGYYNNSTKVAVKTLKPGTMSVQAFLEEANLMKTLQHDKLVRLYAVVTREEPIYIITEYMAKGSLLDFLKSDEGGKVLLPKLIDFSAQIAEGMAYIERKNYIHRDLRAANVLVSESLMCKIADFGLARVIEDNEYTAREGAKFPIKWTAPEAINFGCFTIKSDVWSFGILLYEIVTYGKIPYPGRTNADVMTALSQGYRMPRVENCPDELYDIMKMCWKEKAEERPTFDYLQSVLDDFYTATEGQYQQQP
Measurement Kind: pIC50
Note on pIC50: it is the negative log10 of concentration, concentration in mol/L.

Problem: I would be grateful if you could share the reported pIC50 for Cc1ccc(C(=O)Nc2ccc(CN3CCN(C(=O)CCCc4cn(CCOCCOCCOCCNc5cccc6c5C(=O)N(C5CCC(=O)NC5=O)C6=O)nn4)CC3)c(C(F)(F)F)c2)cc1C#Cc1cnc2cccnn12 (stereo unspecified) .
Result: 7.35

---

Tested Target: UniProtKB P12931
Sequence (P12931 2-536 limits assumed): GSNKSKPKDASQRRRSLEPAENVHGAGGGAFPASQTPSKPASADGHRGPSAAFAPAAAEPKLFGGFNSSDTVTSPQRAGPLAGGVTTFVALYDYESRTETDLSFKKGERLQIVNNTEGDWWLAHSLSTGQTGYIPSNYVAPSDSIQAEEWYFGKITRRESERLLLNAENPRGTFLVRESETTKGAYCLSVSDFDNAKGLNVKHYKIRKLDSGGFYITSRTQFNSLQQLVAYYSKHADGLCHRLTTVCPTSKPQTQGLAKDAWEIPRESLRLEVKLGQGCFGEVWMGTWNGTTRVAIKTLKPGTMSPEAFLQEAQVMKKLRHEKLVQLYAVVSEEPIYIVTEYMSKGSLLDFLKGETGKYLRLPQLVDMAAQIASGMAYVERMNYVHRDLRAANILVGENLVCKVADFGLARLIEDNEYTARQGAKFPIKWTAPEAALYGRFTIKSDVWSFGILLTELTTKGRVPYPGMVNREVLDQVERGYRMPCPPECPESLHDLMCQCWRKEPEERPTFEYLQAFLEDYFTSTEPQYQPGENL
Measurement Kind: IC50 (µM)
A number alone suffices; assume µM.

Problem: # value lookup — system UniProtKB P12931, readout IC50, item Cc1ccc(C(=O)Nc2ccc(CN3CCN(C(=O)CCCc4cn(CCOCCOCCOCCNc5cccc6c5C(=O)N(C5CCC(=O)NC5=O)C6=O)nn4)CC3)c(C(F)(F)F)c2)cc1C#Cc1cnc2cccnn12 (stereo unspecified)
Result: 2.58

---

Tested Target: Vascular endothelial growth factor receptor 2 (Homo sapiens)
Sequence (P35968 whole entry): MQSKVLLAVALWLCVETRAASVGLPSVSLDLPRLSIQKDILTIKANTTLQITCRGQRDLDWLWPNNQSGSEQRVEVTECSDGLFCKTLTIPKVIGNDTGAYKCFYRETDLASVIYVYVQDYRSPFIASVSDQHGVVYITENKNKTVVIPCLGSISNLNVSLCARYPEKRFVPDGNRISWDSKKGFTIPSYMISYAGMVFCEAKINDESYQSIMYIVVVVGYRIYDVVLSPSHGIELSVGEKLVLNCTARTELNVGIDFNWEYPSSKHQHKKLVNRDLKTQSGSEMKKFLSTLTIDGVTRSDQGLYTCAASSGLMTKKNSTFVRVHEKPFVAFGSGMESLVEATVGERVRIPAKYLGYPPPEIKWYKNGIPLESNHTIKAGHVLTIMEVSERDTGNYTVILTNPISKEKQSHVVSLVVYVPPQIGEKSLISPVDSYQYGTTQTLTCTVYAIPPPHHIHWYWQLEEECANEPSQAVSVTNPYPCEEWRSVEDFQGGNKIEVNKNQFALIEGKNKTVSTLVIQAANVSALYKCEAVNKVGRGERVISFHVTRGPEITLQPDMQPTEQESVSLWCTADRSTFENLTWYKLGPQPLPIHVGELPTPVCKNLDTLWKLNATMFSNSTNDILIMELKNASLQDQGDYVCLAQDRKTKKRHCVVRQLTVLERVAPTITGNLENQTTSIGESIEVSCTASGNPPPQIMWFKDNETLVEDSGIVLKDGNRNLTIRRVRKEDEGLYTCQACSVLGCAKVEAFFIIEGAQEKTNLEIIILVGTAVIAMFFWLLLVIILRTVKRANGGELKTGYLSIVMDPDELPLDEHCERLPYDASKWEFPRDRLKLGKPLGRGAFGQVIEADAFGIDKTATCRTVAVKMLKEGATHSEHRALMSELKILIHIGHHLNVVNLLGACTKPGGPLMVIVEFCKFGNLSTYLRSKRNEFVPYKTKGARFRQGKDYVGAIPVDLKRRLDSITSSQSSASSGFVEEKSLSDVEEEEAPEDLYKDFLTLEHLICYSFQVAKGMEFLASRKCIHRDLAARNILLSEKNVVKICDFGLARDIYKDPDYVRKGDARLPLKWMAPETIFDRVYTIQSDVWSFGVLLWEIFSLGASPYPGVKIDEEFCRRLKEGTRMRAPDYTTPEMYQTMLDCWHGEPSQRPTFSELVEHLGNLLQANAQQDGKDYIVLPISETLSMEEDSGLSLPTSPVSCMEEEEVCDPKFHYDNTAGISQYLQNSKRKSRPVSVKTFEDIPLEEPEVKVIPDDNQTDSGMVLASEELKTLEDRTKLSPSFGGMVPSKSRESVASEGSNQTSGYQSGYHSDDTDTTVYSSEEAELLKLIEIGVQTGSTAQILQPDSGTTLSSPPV
Measurement Kind: IC50 (nM)
A number alone suffices; assume nM.

Problem: I would be grateful if you could share the reported IC50 for Cc1ccc(C(=O)Nc2ccc(CN3CCN(C(=O)CCCc4cn(CCOCCOCCOCCNc5cccc6c5C(=O)N(C5CCC(=O)NC5=O)C6=O)nn4)CC3)c(C(F)(F)F)c2)cc1C#Cc1cnc2cccnn12 (stereo unspecified) .
Result: 441

---

Tested on: K562
Measurement Description: Antiproliferative activity against human K562 cells incubated for 3 days by CCK8 assay
Type: functional, cell-based
Reported Conditions: K562, 72 h
Give measured IC50 for each item. Keep answers brief.
A number alone suffices; assume nM.

Problem: I would be grateful if you could share the reported IC50 for `Cc1ccc(C(=O)Nc2ccc(CN3CCN(C)CC3)c(C(F)(F)F)c2)cc1C#Cc1cnc2cccnn12` .
Result: 0.3

Problem: I would be grateful if you could share the reported IC50 for Cc1nc(Nc2ncc(C(=O)Nc3c(C)cccc3Cl)s2)cc(N2CCN(C(=O)CCCc3cn(CCOCCOCCOCCOCCNc4cccc5c4C(=O)N(C4CCC(=O)NC4=O)C5=O)nn3)CC2)n1 (stereo not drawn) .
Result: 9.2

Problem: I would be grateful if you could share the reported IC50 for Cc1nc(Nc2ncc(C(=O)Nc3c(C)cccc3Cl)s2)cc(N2CCN(CCCCCCOCCOCCOCCCCCC(=O)Nc3cccc4c3C(=O)N(C3CCC(=O)NC3=O)C4=O)CC2)n1 (stereo not drawn) .
Result: 8

---

Tested Target: Protein cereblon/Tyrosine-protein kinase ABL1/Breakpoint cluster region protein (Homo sapiens, UniProt P00519+P11274+Q96SW2, T315I)
Measurement Kind: EC50

Problem: I would be grateful if you could share the reported EC50 for `C#CCCCC(=O)N1CCN(c2cc(Nc3ncc(/C=C/c4cccc(C)c4)s3)nc(C)n2)CC1` .
Result: 0.45 µM

Problem: I would be grateful if you could share the reported EC50 for `C#CCCCC(=O)N1CCN(c2cc(Nc3ncc(/C=C/c4cccc(O)c4)s3)nc(C)n2)CC1` .
Result: 1.3 µM

Problem: I would be grateful if you could share the reported EC50 for `C#CCCCC(=O)N1CCN(c2cc(Nc3ncc(C)s3)nc(C)n2)CC1` .
Result: > 10 µM

Problem: I would be grateful if you could share the reported EC50 for Cc1ccc(C(=O)Nc2ccc(CN3CCN(C(=O)CCCc4cn(CCOCCOCCOCCNc5cccc6c5C(=O)N(C5CCC(=O)NC5=O)C6=O)nn4)CC3)c(C(F)(F)F)c2)cc1C#Cc1cnc2cccnn12 (stereo not given) .
Result: 0.0285 µM

Problem: I would be grateful if you could share the reported EC50 for `C#CCCCC(=O)N1CCN(c2cc(Nc3ncc(/C=C/c4cc(F)cc(F)c4)s3)nc(C)n2)CC1` .
Result: 1.5 µM

---

Tested Target: Protein cereblon/Tyrosine-protein kinase ABL1/Breakpoint cluster region protein (Homo sapiens, UniProt P00519+P11274+Q96SW2)
Measurement Description: Protac activity at Cereblon/BCR/ABL in human K562 cells assessed as induction of BCR-ABL degradation incubated for 32 to 48 hrs by Western blot analysis
Type: cell-based
Our labelling divides records by DC50 into ranges: bottom (below 0.06 µM), middle (0.06 µM to below 0.2 µM), top (0.2 µM or more)

Problem: Bin? Cc1ccc(NC(=O)c2ccc(CN3CCN(C(=O)CCCc4cn(CCOCCOCCOCCNc5cccc6c5C(=O)N(C5CCC(=O)NC5=O)C6=O)nn4)CC3)cc2)cc1Nc1nccc(-c2cccnc2)n1 (stereo not given)
Result: top

Problem: Bin? Cc1ccc(NC(=O)c2ccc(CN3CCN(C(=O)CCCc4cn(CCOCCOCCOCCOCCNc5cccc6c5C(=O)N(C5CCC(=O)NC5=O)C6=O)nn4)CC3)cc2)cc1Nc1nccc(-c2cccnc2)n1 (stereo not given)
Result: top

Problem: Bin? Cc1ccc(NC(=O)c2ccc(CN3CCN(C(=O)CCCc4cn(CCNc5cccc6c5C(=O)N(C5CCC(=O)NC5=O)C6=O)nn4)CC3)cc2)cc1Nc1nccc(-c2cccnc2)n1 (stereo not given)
Result: top

Problem: Bin? Cc1nc(Nc2ncc(C(=O)Nc3c(C)cccc3Cl)s2)cc(N2CCN(C(=O)CCCc3cn(CCOCCOCCNc4cccc5c4C(=O)N(C4CCC(=O)NC4=O)C5=O)nn3)CC2)n1 (stereo not given)
Result: bottom

Problem: Bin? Cc1ccc(NC(=O)c2ccc(CN3CCN(C(=O)CCCc4cn(CCOCCNc5cccc6c5C(=O)N(C5CCC(=O)NC5=O)C6=O)nn4)CC3)cc2)cc1Nc1nccc(-c2cccnc2)n1 (stereo not given)
Result: top

Problem: Bin? Cc1ccc(C(=O)Nc2ccc(CN3CCN(C(=O)CCCc4cn(CCOCCNc5cccc6c5C(=O)N(C5CCC(=O)NC5=O)C6=O)nn4)CC3)c(C(F)(F)F)c2)cc1C#Cc1cnc2cccnn12 (stereo not given)
Result: middle

Problem: Bin? Cc1nc(Nc2ncc(C(=O)Nc3c(C)cccc3Cl)s2)cc(N2CCN(C(=O)CCCc3cn(CCOCCOCCOCCOCCNc4cccc5c4C(=O)N(C4CCC(=O)NC4=O)C5=O)nn3)CC2)n1 (stereo not given)
Result: bottom

Problem: Bin? O=C1CCC(N2C(=O)c3cccc(NCCOCCn4cc(CCCC(=O)N[C@@H]5CCN(c6ncc(C(=O)Nc7ccc(OC(F)(F)Cl)cc7)cc6-c6cc[nH]n6)C5)nn4)c3C2=O)C(=O)N1 (stereo not given in full)
Result: top

Problem: Bin? Cc1ccc(C(=O)Nc2ccc(CN3CCN(C(=O)CCCc4cn(CCNc5cccc6c5C(=O)N(C5CCC(=O)NC5=O)C6=O)nn4)CC3)c(C(F)(F)F)c2)cc1C#Cc1cnc2cccnn12 (stereo not given)
Result: top

Problem: Bin? Cc1nc(Nc2ncc(C(=O)Nc3c(C)cccc3Cl)s2)cc(N2CCN(C(=O)CCCc3cn(CCOCCNc4cccc5c4C(=O)N(C4CCC(=O)NC4=O)C5=O)nn3)CC2)n1 (stereo not given)
Result: bottom

Problem: Bin? O=C1CCC(N2C(=O)c3cccc(NCCn4cc(CCCC(=O)N[C@@H]5CCN(c6ncc(C(=O)Nc7ccc(OC(F)(F)Cl)cc7)cc6-c6cc[nH]n6)C5)nn4)c3C2=O)C(=O)N1 (stereo not given in full)
Result: top

Problem: Bin? Cc1ccc(C(=O)Nc2ccc(CN3CCN(C(=O)CCCc4cn(CCOCCOCCNc5cccc6c5C(=O)N(C5CCC(=O)NC5=O)C6=O)nn4)CC3)c(C(F)(F)F)c2)cc1C#Cc1cnc2cccnn12 (stereo not given)
Result: middle

Problem: Bin? Cc1ccc(C(=O)Nc2ccc(CN3CCN(C(=O)CCCc4cn(CCOCCOCCOCCOCCNc5cccc6c5C(=O)N(C5CCC(=O)NC5=O)C6=O)nn4)CC3)c(C(F)(F)F)c2)cc1C#Cc1cnc2cccnn12 (stereo not given)
Result: middle

Problem: Bin? O=C1CCC(N2C(=O)c3cccc(NCCOCCOCCOCCOCCn4cc(CCCC(=O)N[C@@H]5CCN(c6ncc(C(=O)Nc7ccc(OC(F)(F)Cl)cc7)cc6-c6cc[nH]n6)C5)nn4)c3C2=O)C(=O)N1 (stereo not given in full)
Result: top

Problem: Bin? Cc1ccc(C(=O)Nc2ccc(CN3CCN(C(=O)CCCc4cn(CCOCCOCCOCCNc5cccc6c5C(=O)N(C5CCC(=O)NC5=O)C6=O)nn4)CC3)c(C(F)(F)F)c2)cc1C#Cc1cnc2cccnn12 (stereo not given)
Result: bottom

Problem: Bin? Cc1nc(Nc2ncc(C(=O)Nc3c(C)cccc3Cl)s2)cc(N2CCN(C(=O)CCCc3cn(CCOCCOCCOCCNc4cccc5c4C(=O)N(C4CCC(=O)NC4=O)C5=O)nn3)CC2)n1 (stereo not given)
Result: bottom

Problem: Bin? O=C1CCC(N2C(=O)c3cccc(NCCOCCOCCn4cc(CCCC(=O)N[C@@H]5CCN(c6ncc(C(=O)Nc7ccc(OC(F)(F)Cl)cc7)cc6-c6cc[nH]n6)C5)nn4)c3C2=O)C(=O)N1 (stereo not given in full)
Result: top

Problem: Bin? Cc1ccc(NC(=O)c2ccc(CN3CCN(C(=O)CCCc4cn(CCOCCOCCNc5cccc6c5C(=O)N(C5CCC(=O)NC5=O)C6=O)nn4)CC3)cc2)cc1Nc1nccc(-c2cccnc2)n1 (stereo not given)
Result: top

Problem: Bin? Cc1nc(Nc2ncc(C(=O)Nc3c(C)cccc3Cl)s2)cc(N2CCN(C(=O)CCCc3cn(CCNc4cccc5c4C(=O)N(C4CCC(=O)NC4=O)C5=O)nn3)CC2)n1 (stereo not given)
Result: bottom
